# ED90 values compiled below
System: Rattus norvegicus
Assay: Concentration required for 50% ability to normalize elevated sciatic nerve fructose in reversal protocol using chronic model in streptozocin (STZ)-induced diabetic rats (in vivo)
Type: functional
Details: in the assay text read “90% ability” for “50% ability”
recorded endpoint: ED90 (mg/kg/day)

{"chemical string": "C[C@@H]1CN(c2cnc3ccccc3n2)C[C@H](C)N1c1ccnc([C@@H](C)O)n1", "units text": "mg/kg/day", "qualifying sign": "=", "measured value": 1}
{"chemical string": "C[C@@H]1CN(c2ccnc(CCO)n2)C[C@H](C)N1c1ccnc([C@@H](C)O)n1", "units text": "mg/kg/day", "qualifying sign": "=", "measured value": 2}
{"chemical string": "C[C@@H](O)c1nccc(N2CCN(c3nc4ccncc4o3)CC2)n1", "units text": "mg/kg/day", "qualifying sign": "=", "measured value": 10}
{"chemical string": "Cc1cc(CO)nc(N2C[C@@H](C)N(c3ccnc([C@@H](C)O)n3)[C@@H](C)C2)n1", "units text": "mg/kg/day", "qualifying sign": "=", "measured value": 1}
{"chemical string": "C[C@@H](O)c1nccc(N2CCN(c3cnc4ccccc4n3)CC2)n1", "units text": "mg/kg/day", "qualifying sign": ">", "measured value": 20}
{"chemical string": "Cc1cc(CO)nc(N2CCN(c3ccnc([C@@H](C)O)n3)C[C@@H]2C)n1", "units text": "mg/kg/day", "qualifying sign": "=", "measured value": 2}
